experiment: viability of HCT116 without oncogenic beta-catenin – human colon tumor cells, pilot screen (AID 823); settings: HCT116 beta-catenin knockout viability, CellTiter-Glo, 60 h; at 10 µM; stronger effect = lower value;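 also: 0% = wells killed by 20 µM Hyamine and 100% = untreated DMSO cell wells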
Results filed as inconclusive are left out.
Parameter: viability (%)
One number for each entry, in %.

Okay, here is my list. What is viability for each of these?
1. CSc1ccc(C2NC(=O)c3c(sc4c3CCN(C)C4)N2)cc1 (centres undefined)
2. CCOC(=O)N1CCN(c2nc(C)cc(C(F)(F)F)n2)CC1
3. COc1ccc(C2C(C(=O)NCc3cccnc3)c3ccccc3C(=O)N2C)cc1OC (centres undefined)

78.2
102
101

For each of the compounds below, state viability.
1. CC(C)C(NS(=O)(=O)c1ccc2c(c1)oc(=O)n2C)C(=O)N1CCN(Cc2ccccc2)CC1 (centres undefined)
2. Cc1cc(NC(=O)CSc2cn(CCNC(=O)c3ccc(Cl)cc3)c3ccccc23)no1
3. c1ccc2c(c1)ccc1nnc(-c3ccc4c(c3)OCO4)n12
4. CCOC(=O)C1CCCN(C(=O)Cc2c(C(=O)O)[nH]c3ccccc23)C1 (centres undefined)
5. O=C1C(Cl)=C(NCC2CCCO2)C(=O)N1C1CCCCC1 (centres undefined)
6. COc1ccc(CCn2c(N)c(S(=O)(=O)c3cccs3)c3nc4ccccc4nc32)cc1OC

1. 88.9
2. 61.5
3. 93.7
4. 97.3
5. 88.3
6. 91.6

Hey, can you go through the list below and give me viability for every item?
1. COC(=O)CN1C(=O)C(O)(CC(=O)c2cccc(Br)c2)c2ccccc21 (centres undefined)
2. O=C(CSc1nnnn1-c1ccccc1)Nc1ccc(Cl)cc1
3. COc1cc(C2C(C(=O)c3ccco3)=C(O)C(=O)N2Cc2cccnc2)cc(OC)c1OC (centres undefined)
4. O=C(Nc1nnc(-c2ccccc2)s1)c1ccc(Cl)c(S(=O)(=O)N2CCOCC2)c1

1: 90.9; 2: 74; 3: 102; 4: 100

Fill in viability for each of the 6 compounds listed.
1. CCOCCCNC(=O)C(c1ccc(C)cc1)N(Cc1ccc2c(c1)OCO2)C(=O)c1cnccn1 (centres undefined)
2. COC(=O)CN1C(=O)CC(C)(C)S(=O)c2ccccc21 (centres undefined)
3. CC(C)C(NC(=O)c1ccc(S(=O)(=O)N2CCOCC2)cc1)c1nc2ccccc2[nH]1 (centres undefined)
4. COCCN1C(=O)c2oc3ccccc3c(=O)c2C1c1ccc(O)c(OC)c1 (centres undefined)
5. C=CCOC(=O)C1=C(C)N(C)C(=O)NC1c1cc2c(cc1Br)OCO2 (centres undefined)
6. O=C(CCn1c(=O)oc2ccccc21)NCc1ccco1

[93.8, 107, 100, 97.5, 88.1, 102]
